// pEC50 lookup, one value per entry
- measured.on: human TLR7 (Homo sapiens, UniProt Q9NYK1)
- Construct: host or cells: HEK-Blue TLR7 cells (engineered human embryonic kidney cells)
- test.name: Human TLR7 agonist (reporter) activity assay, HEK-Blue TLR7 cells, SEAP reporter
- Format: cell-based
- condition.set: 18 h treatment, average where assay was performed multiple times, read-out: hTLR7 Agonism EC50
To interpret pEC50, take it as minus log10 of a concentration measured in moles per litre.

{"smiles.data": "COc1cc(CN2CCN(C)CC2)ccc1Cn1nc(C)c2nc(N)nc(NCc3cc(C)on3)c21", "attribute.measured": "pEC50", "value": 7.00}
{"smiles.data": "COc1cc(CO)ccc1Cn1ncc2nc(N)nc(NCc3cc(C)on3)c21", "attribute.measured": "pEC50", "value": 6.45}
{"smiles.data": "COc1cc(CN2CC(OC)C2)ccc1Cn1ncc2nc(N)nc(NCc3cc(C)on3)c21", "attribute.measured": "pEC50", "value": 7.24}

Please examine the following record next.
**Query** pEC50 for COc1cc(CN2CCN(CCO)CC2)ccc1Cn1ncc2nc(N)nc(NCc3noc(C)n3)c21 ?
**Result** 7.73

---

- measured.on: human TLR7 (Homo sapiens)
- Construct: host or cells: HEK-Blue TLR7 cells (engineered human embryonic kidney cells)
- Sequence (Q9NYK1 27-1049): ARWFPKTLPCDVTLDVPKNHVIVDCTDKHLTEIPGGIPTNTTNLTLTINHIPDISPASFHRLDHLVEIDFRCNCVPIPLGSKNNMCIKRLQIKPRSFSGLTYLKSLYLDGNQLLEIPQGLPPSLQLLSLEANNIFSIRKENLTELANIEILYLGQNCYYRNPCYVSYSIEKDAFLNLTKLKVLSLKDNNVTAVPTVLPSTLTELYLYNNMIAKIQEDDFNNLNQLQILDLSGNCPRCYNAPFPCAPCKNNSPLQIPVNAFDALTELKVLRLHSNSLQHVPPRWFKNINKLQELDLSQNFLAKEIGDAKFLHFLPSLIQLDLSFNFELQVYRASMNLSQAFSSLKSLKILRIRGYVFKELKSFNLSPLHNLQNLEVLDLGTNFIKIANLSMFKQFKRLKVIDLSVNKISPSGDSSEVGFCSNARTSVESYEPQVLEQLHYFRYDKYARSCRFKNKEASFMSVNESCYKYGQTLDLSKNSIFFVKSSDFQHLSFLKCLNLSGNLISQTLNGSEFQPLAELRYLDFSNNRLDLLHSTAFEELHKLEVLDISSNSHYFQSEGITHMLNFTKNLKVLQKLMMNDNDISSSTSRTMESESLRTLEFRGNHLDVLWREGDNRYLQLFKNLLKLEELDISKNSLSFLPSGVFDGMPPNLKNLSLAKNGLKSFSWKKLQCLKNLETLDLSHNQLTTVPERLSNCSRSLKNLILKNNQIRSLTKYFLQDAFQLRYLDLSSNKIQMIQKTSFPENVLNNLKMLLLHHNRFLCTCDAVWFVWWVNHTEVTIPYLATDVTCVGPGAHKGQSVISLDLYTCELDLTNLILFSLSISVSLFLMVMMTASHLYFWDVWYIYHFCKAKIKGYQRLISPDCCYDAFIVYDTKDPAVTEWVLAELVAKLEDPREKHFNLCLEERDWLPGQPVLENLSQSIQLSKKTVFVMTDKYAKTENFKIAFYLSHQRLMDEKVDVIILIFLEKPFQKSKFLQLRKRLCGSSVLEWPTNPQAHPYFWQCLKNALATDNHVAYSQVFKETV
- test.name: Human TLR7 agonist (reporter) activity assay, HEK-Blue TLR7 cells, SEAP reporter
- Type: cell-based
- condition.set: 18 h treatment, average where assay was performed multiple times, read-out: hTLR7 Agonism EC50
attribute.measured: pEC50
Formally, pEC50 is defined as -log10 of the concentration c, with c in mol/L.

**Query** Recorded pEC50 of COc1cc(CN2CCN(CCO)CC2)ccc1Cn1nc(C)c2nc(N)nc(NCC[C@H](O)C3CC3)c21 [Compound 126] , please.
**Result** 6.13

**Query** Name the reported pEC50 value associated with the compound COc1cc(CO)ccc1Cn1ncc2nc(N)nc(NCc3noc(C)n3)c21 [Compound 116]
**Result** 6.14

**Query** Query: pEC50; subject: COc1cc(CNC2CCN(S(C)(=O)=O)CC2)ccc1Cn1ncc2nc(N)nc(NCc3noc(C)n3)c21 [Compound 123]
**Result** 6.71

---

Listing: EC50 of selected compounds
- Test system: CD69
- test.name: Induction of CD69 in human whole blood
- Assay type: cell-based
- condition.set: 17 hrs, CD69 surface staining, 100% set to 1 uM of resiquimod, average where assay was performed multiple times, read-out: hWB CD69 EC50
Field format: number, assumed nM, no unit text.

Worked examples, 3 compounds total:
{"smiles.data": "COc1cc(CN2CC(OC)C2)ccc1Cn1ncc2nc(N)nc(NCc3noc(C)n3)c21", "display.unit": "nM", "value": 4.3}
{"smiles.data": "COc1cc(CN2CCN(CCO)CC2)ccc1Cn1nc(C)c2nc(N)nc(NCC[C@H](O)C3CC3)c21", "display.unit": "nM", "value": 25.3}
{"smiles.data": "COc1cc(CN2CCC(S(C)(=O)=O)CC2)ccc1Cn1ncc2nc(N)nc(NCc3noc(C)n3)c21", "display.unit": "nM", "value": 34.7}

**Query** Quick one: EC50 of COc1cc(CNC2CCOCC2)ccc1Cn1ncc2nc(N)nc(NCc3noc(C)n3)c21 ?
**Result** 19.6

---

Overview of reported pEC50 across a group of compounds:
- Test system: CD69
- test.name: Induction of CD69 in human whole blood
- Type: cell-based
- condition.set: 17 hrs, CD69 surface staining, 100% set to 1 uM of resiquimod, average where assay was performed multiple times, read-out: hWB CD69 EC50
Quick note: pEC50 means taking -log10 of the concentration in moles per liter.

{"compound": "COc1cc(CN2CCN(S(C)(=O)=O)CC2)ccc1Cn1ncc2nc(N)nc(NCc3cc(C)on3)c21", "pEC50": 6.36}
{"compound": "COc1cc(CN2CCN(CCO)CC2)ccc1Cn1ncc2nc(N)nc(NCc3noc(C4CC4)n3)c21", "pEC50": 8.12}
{"compound": "COc1cc(CNC2CCOCC2)ccc1Cn1ncc2nc(N)nc(NCC[C@@H](O)C3CC3)c21 [Compound 109b]", "pEC50": 6.79}
{"compound": "COc1cc(CN2CCN(C)CC2)ccc1Cn1ncc2nc(N)nc(NCc3cc(C)on3)c21", "pEC50": 8.44}
{"compound": "COc1cc(CNC2CCOCC2)ccc1Cn1nc(C)c2nc(N)nc(NCc3cc(C)on3)c21", "pEC50": 7.99}
{"compound": "COc1cc(CN2CCN(C)CC2)ccc1Cn1ncc2nc(N)nc(NCc3noc(C4CC4)n3)c21", "pEC50": 8.28}

**Query** Look up pEC50: COc1cc(CNC2CCC2)ccc1Cn1ncc2nc(N)nc(NCc3cc(C)on3)c21
**Result** 7.59

**Query** Reported pEC50, compound COc1cc(CNC2CCOCC2)ccc1Cn1ncc2nc(N)nc(NCc3cc(C)on3)c21 : ____
**Result** 8.27

**Query** Reported pEC50 for COc1cc(CNC2CN(S(C)(=O)=O)C2)ccc1Cn1ncc2nc(N)nc(NCc3noc(C)n3)c21 : what is it?
**Result** 6.66

---

- System: CD69
- test.name: Induction of CD69 in human whole blood
- Format: cell-based
- condition.set: 17 hrs, CD69 surface staining, 100% set to 1 uM of resiquimod, average where assay was performed multiple times, read-out: hWB CD69 EC50
Each entry below lists one item and its recorded pEC50 value.
Remember, pEC50 is on a log scale: it is -log10 of the molar concentration.

Observe how each entry below is paired with its result.
{"compound": "COc1cc(CNC2CCOCC2)ccc1Cn1ncc2nc(N)nc(N[C@H](CO)CC3CC3)c21 [Compound 108]", "value": 6.92}
{"compound": "COc1cc(CNC2CCOCC2)ccc1Cn1ncc2nc(N)nc(NCC[C@H](O)C3CC3)c21 [Compound 109A]", "value": 7.12}
{"compound": "COc1cc(CNC2CCOCC2)cnc1Cn1ncc2nc(N)nc(NCc3noc(C)n3)c21 [Compound 130]", "value": 7.07}

**Query** Recorded pEC50 of COc1cc(CNC2CCOCC2)ccc1Cn1ncc2nc(N)nc(NCc3noc(C4CC4)n3)c21 [Compound 127] , please.
**Result** 7.59

**Query** Param item = COc1cc(CN2CCC(S(C)(=O)=O)CC2)ccc1Cn1ncc2nc(N)nc(NCc3cc(C)on3)c21 [Compound 111] ; retrieve measured pEC50.
**Result** 7.23

**Query** Entry under review: COc1cc(CN2CC(OC)C2)ccc1Cn1ncc2nc(N)nc(NCc3cc(C)on3)c21 [Compound 106] . Reported pEC50?
**Result** 8.02

**Query** Give the measured pEC50 of COc1cc(CNC2CCN(S(C)(=O)=O)CC2)ccc1Cn1ncc2nc(N)nc(NCc3noc(C)n3)c21 [Compound 123] .
**Result** 7.74

**Query** Can you look up the measured pEC50 of COc1cc(CN2CCS(=O)(=O)CC2)ccc1Cn1ncc2nc(N)nc(NCc3noc(C)n3)c21 [Compound 121] for me?
**Result** 6.54
